Task for the reader: assign each of the following binders its reported kon.
experimental-system: T1, Cyno FRα ECD-Avi-His (cynomolgus monkey, biotin on the Avi-tag (BirA) in the HTRF assays)
T1 construct: Soluble region with C-terminal Avi and His tags
T1 sequence (chain, as listed by the source limits assumed): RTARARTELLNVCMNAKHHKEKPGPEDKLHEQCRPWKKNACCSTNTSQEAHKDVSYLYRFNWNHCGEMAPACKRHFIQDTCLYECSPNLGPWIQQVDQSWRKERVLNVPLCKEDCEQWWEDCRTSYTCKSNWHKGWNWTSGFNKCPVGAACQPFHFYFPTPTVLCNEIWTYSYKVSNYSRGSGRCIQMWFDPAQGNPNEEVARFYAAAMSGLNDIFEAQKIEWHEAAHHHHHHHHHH
assay-notes: SPR (Biacore T200, 25°C); antibody captured on Protein A, FRα ECD as analyte
One number for each entry, in M⁻¹ s⁻¹.

For each entry beneath this line, provide reported kon.
1. AB1370083 hIgG1 (antibody, V domains shown) VH: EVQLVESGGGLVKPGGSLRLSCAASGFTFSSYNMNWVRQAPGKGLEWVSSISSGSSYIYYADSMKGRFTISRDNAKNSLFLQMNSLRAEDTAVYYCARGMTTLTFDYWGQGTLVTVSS VL: DIQMTQSPSSLSASVGDRVTITCRASQGISTFLAWFQQKPGKAPKSLIYAASSLQSGVPSKFSGSGSETDFTLTISSLQPEDFATYYCQQYISYPLTFGGGTKVEIKR
2. AB1370095 hIgG1 (antibody, V domains shown) VH: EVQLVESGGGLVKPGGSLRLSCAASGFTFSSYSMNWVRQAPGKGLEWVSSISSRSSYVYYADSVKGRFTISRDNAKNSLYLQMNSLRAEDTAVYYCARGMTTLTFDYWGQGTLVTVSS VL: DIQMTQSPSSLSASVGDRVTITCRASQGISSFLAWFQQKPGKAPKSLIYAASSLQSGVPSKFSGSGSGTDFTLTISSLQPEDFATYYCQQYNSYPLTFGGGTKVEIKR

1: 101000; 2: 95800

For each entry beneath this line, provide reported kon.
1. AB1370035 hIgG1 (antibody, V domains shown) VH: QVQLQQSGPGLVKPSQTLSLTCAISGDSVSSNSAAWNWIRQSPSRGLEWLGRTYYRSNWYNDYTLSVKSRITVNPDTSKNQFSLQLNSVTPEDTAVYYCVRGVGRFDSWGQGTLVTVSS VL: DIQMTQSPSTLSASVGDRVIITCRASQSISSWLAWYQQKPGKAPKLLIYKASSLESGVPSRFSGSGSGTEFTLTITSLQPDDFASYYCQEYKTYSIFTFGPGTKVDIKR
2. AB1370026 hIgG1 (antibody, V domains shown) VH: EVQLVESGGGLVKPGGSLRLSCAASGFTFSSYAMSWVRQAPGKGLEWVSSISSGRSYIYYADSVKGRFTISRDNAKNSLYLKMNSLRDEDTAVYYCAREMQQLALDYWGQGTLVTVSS VL: DIQMTQSPSSLSASVGDRVTITCRASQGISNFLAWFQQAPGKAPKSLIYAASSLQSGVPSKFSGSGSGTDFTLTISSLQPEDFATYYCQQYNSYPFTFGQGTKLEIKR

475000
195000
